// values below are reported % Efficacy, in vitro hCD34 cell killing assay
Molecular target: Human CD117 on Kasumi-1 cells or primary human CD34+ bone marrow cells (human, UniProt P10721 26-976)
Sequence (P10721 26-976 limits assumed): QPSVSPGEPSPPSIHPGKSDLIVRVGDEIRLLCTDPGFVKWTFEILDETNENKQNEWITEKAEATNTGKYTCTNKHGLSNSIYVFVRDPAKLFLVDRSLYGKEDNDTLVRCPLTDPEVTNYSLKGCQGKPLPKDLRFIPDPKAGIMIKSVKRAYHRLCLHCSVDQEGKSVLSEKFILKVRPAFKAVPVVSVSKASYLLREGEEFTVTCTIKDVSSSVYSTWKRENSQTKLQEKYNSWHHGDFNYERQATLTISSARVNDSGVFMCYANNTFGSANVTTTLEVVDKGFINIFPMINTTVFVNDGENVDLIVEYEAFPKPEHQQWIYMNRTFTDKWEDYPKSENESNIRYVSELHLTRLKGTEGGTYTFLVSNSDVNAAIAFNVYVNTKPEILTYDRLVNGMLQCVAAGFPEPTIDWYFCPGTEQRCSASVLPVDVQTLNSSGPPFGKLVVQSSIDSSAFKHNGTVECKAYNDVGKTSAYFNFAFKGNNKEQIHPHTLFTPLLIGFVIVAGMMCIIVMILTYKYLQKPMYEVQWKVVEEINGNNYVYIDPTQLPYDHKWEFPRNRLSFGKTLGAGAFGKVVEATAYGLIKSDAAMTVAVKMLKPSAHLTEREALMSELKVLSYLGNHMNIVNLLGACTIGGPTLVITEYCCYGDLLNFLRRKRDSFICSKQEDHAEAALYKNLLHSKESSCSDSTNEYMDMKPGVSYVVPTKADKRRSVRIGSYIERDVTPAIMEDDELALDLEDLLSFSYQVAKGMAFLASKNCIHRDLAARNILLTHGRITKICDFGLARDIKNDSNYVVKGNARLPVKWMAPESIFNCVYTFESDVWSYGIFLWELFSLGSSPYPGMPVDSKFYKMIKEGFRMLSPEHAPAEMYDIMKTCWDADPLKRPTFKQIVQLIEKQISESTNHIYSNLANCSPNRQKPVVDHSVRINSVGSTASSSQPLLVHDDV
Experiment: cell-based or functional assay
endpoint: % Efficacy, in vitro hCD34 cell killing assay

binder	result
CK6 S239C-PBD (antibody, V domains shown, PBD (DNA cross linker) conjugated to the antibody, Fc modification S239C, DAR 1.7) VH: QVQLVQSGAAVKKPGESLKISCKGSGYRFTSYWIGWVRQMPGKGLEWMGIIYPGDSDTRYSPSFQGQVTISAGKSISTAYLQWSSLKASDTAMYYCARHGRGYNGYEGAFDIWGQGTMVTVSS VL: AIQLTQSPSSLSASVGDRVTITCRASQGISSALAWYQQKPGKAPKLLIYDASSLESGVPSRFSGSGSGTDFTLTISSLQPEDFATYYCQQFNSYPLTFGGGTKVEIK	97.3%
CK6 S239C-D4 (calicheamicin) (antibody, V domains shown, calicheamicin (D4) conjugated to the antibody, Fc modification S239C, DAR 1.72) VH: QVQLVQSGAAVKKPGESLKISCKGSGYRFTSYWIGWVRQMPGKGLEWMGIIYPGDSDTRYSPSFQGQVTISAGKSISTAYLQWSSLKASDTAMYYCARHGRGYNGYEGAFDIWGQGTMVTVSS VL: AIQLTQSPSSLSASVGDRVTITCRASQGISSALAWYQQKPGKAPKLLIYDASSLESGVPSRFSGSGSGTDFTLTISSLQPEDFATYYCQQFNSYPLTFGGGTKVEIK	52.3%
CK6 S239C-DM (duocarmycin) (antibody, V domains shown, duocarmycin (DM) conjugated to the antibody, Fc modification S239C, DAR 1.65) VH: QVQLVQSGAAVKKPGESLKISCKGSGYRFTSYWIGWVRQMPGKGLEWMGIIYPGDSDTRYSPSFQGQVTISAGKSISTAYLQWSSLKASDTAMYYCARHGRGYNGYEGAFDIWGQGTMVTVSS VL: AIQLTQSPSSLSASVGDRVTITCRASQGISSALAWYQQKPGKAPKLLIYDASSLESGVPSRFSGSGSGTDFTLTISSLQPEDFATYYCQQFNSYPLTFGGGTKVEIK	66.2%
CK6 S239C-PNU (antibody, V domains shown, PNU (DNA topoisomerase I/II inhibitor) conjugated to the antibody, Fc modification S239C, DAR 1.4) VH: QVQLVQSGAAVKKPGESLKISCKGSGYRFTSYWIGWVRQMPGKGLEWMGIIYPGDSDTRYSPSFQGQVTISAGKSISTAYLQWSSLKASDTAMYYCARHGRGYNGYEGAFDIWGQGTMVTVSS VL: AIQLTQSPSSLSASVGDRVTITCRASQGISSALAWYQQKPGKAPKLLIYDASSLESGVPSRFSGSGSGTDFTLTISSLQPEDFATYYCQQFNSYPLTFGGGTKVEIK	74.4%
